# Measurement Target: T1, human soluble urokinase plasminogen activator receptor (hsuPAR) (human, UniProt Q03405 23-303, limits assumed)
# T1 construct: also called human suPAR; rhuPAR-His
# T1 sequence (Q03405 23-303 limits assumed): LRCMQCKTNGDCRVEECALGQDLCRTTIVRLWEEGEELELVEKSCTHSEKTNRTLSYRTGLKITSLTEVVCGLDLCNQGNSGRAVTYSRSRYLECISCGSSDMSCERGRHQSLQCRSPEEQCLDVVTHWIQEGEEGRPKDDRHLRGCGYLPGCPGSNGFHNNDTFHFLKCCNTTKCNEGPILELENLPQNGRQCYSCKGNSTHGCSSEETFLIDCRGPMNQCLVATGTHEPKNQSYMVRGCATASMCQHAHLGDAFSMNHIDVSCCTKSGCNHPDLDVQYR
# Test Details: off-rate screen of scFv clones (kdis), Octet BLI
As shown below, each of these binders has a reported koff value.
Assay Metric: koff (s⁻¹)

Binder	Measured
suPAR_DB04_D03 (scFv, V domains shown, scFv clone from phage display) VH: QVQLVQSGAEVKKPGASVKVSCKASGYTFTSYYMHWVRQAPGQGLEWMGWIDPENGSTIYDQKFQGRVTMTRDTSTSTVYMELSSLRSEDTAVYYCARGYDVDWFVYWGQGTLVTVSS VL: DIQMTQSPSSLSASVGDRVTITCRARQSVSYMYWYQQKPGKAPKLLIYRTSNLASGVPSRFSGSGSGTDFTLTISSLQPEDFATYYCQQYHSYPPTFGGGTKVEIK	0.00408
suPAR_DB04_C02 (scFv, V domains shown, scFv clone from phage display) VH: QVQLVQSGAEVKKPGASVKVSCKASGNTFIGYYVHWVRQAPGQGLEWMGWIDHENGNTSYDQKFQGRVTMTRDTSTSTVYMELSSLRSEDTAVYYCARGNDVDWFVYWGQGTLVTVSS VL: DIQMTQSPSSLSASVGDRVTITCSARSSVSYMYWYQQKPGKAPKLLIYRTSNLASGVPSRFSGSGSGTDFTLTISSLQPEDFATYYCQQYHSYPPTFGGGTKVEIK	0.00411
suPAR_DB04_F04 (scFv, V domains shown, scFv clone from phage display) VH: QVQLVQSGAEVKKPGASVKVSCKASGYTFTSYYMHWVRQAPGQGLEWMGWIDHENGNTSYDQKFQGRVTMTRDTSTSTVYMELSSLRSEDTAVYYCARGYDVDWFVYWGQGTLVTVSS VL: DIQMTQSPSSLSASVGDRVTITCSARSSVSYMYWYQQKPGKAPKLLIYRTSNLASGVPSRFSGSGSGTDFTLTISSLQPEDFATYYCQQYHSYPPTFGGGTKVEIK	0.00394
